Numbers sourced from PubChem BioAssay (NCI).

Test system: SK-MEL-28 melanoma
Test: NCI tumour cell line growth inhibition, 48 h
Quick list: TGI per entry.

See these solved cases before continuing.
COMPOUND: CCOC(=O)Cc1nc2nn(Cc3ccccc3)cc2c(=O)[nH]1
TGI: > 100 µM

COMPOUND: Cc1c2c(cc3c1[nH]c1ccccc13)C(c1ccc(F)cc1)=NCC2
TGI: 4.74 µM

COMPOUND: NC(=O)CC1(O)C=CC(=O)C=C1
TGI: > 100 µM

COMPOUND: COc1cc2c(cc1OCCCCCN1CCN(c3cc(=O)oc4c(C)c(OC)ccc34)CC1)N=C[C@@H]1CCCN1C2=O
TGI: 0.163 µM

COMPOUND: Cc1cc(Nc2nc(N3CCOCC3)nc3ccccc23)n[nH]1
TGI: > 100 µM

COMPOUND: OC1C=C2C3CN(Cc4cc5c(cc43)OCO5)[C@H]2C[C@@H]1O (some centres undefined)
TGI: > 100 µM

COMPOUND: Cc1ccc(S(=O)(=O)Oc2coc(CO)cc2=O)cc1
TGI: 36.6 µM

COMPOUND: C=C1C(C2(C)C=CC(=O)OC3(C)COC(=O)CC32)C(OC=O)C(OC(=O)C(O)C(C)CC)C2(C)C(c3ccoc3)CC(OC(C)=O)C12O (centres undefined)
TGI: > 100 µM

Query: So what's the measured TGI for this one? C/C(=C\c1csc(C)n1)[C@@H]1C[C@@H]2O[C@]2(C)CCC[C@H](C)[C@H](O)[C@@H](C)C(=O)C(C)(C)[C@@H](O)CC(=O)O1 (tested in a mixture with another compound)
Reply: > 1 µM

---

Tested on: DMS 273 small cell lung
Test: NCI tumour cell line growth inhibition, 48 h
READOUT_KIND: TGI (µM)
Expressed in µM, but write only the number.

Observe how each entry below is paired with its result.
SMILES_STRUCTURE: Cc1c2c(cc3c1[nH]c1ccccc13)C(c1ccc(F)cc1)=NCC2
TGI, µM: 2.29
//
SMILES_STRUCTURE: O=C(CSc1nnc(-c2ccc(N=Cc3ccc(Cl)cc3)cc2)o1)Nc1ccccc1
TGI, µM: 70.6
//
SMILES_STRUCTURE: CCC[CH2][Sn]([CH2]CCC)([O]C(=O)c1cccc(F)c1F)[O][Sn]([CH2]CCC)([CH2]CCC)[O]C(=O)c1cccc(F)c1F
TGI, µM: 1.51

Query: Given the compound `O=C(/C=C\c1cccc2ccccc12)c1ccc(Br)cc1` , what is its reported TGI?
Reply: 34.5

---

Tested on: TK-10 renal
Assay: NCI tumour cell line growth inhibition, 48 h
READOUT_KIND: TGI

MOLECULE: BrC12C3C4C5C(C(C43)C13OCCO3)C52 (stereo unspecified)
TESTED_ON: TK-10 renal
TGI: > 100 µM
//
MOLECULE: COc1ccc2c(c1)-c1c(c3ccccc3n1CCN1CCCCC1)CC2
TESTED_ON: TK-10 renal
TGI: 54.6 µM
//
MOLECULE: COc1cc(N)ccc1Nc1c2ccccc2nc2ccccc12
TESTED_ON: TK-10 renal
TGI: 30.2 µM

Query: # TGI lookup, item Cc1ccc(NC(=O)/C(=N/NC(=O)CC#N)C2C(=O)N(c3ccccc3)N=C2N)cc1C (stereo unspecified)
Reply: > 100 µM

---

System: SNB-19 CNS
Test: NCI tumour cell line growth inhibition, 48 h
// TGI lookup, one value per entry

In the examples that follow, each entry is paired with its recorded TGI.
SMILES_STRUCTURE: Cc1cc2c(cc1Cl)SC(NNC(=O)c1ccncc1)=NS2(=O)=O
MEAS_VALUE: > 10 µM
--
SMILES_STRUCTURE: O=C(CCc1ccc(O)c(O)c1)c1ccc(O)c(O)c1O
MEAS_VALUE: > 100 µM
--
SMILES_STRUCTURE: Clc1ccc2c(Cl)ncnc2c1I
MEAS_VALUE: > 100 µM
--
SMILES_STRUCTURE: COc1ccc(OC)c2c(=O)cc(-c3ccccc3)[nH]c12
MEAS_VALUE: > 100 µM
--
SMILES_STRUCTURE: O[C@H]1[C@H]2[C@H](O)CCCN2C[C@H]1O
MEAS_VALUE: > 100 µM

Consider the record given below.
Query: Can you look up the measured TGI of `N#C/C(=C\c1ccc(Cl)cc1)n1nnc2cc(F)c(F)cc21` for me?
Reply: 3.78 µM

---

Entries annotated with measured TGI
Test system: NCI-H23 lung
Assay: NCI tumour cell line growth inhibition, 48 h

The following compounds have reported results that may help.
COMPOUND: O=C1CN2CCC1C/C2=C\c1ccnc2c(Cl)cccc12 (centres undefined)
MEAS_VALUE: > 100 µM
--
COMPOUND: O=C1c2ccccc2-c2ccc(O)cc21
MEAS_VALUE: 38.5 µM
--
COMPOUND: c1cc2[se][se]c3c4cccc5[se][se]c(c(c1)c23)c54
MEAS_VALUE: > 100 µM
--
COMPOUND: COc1c(C(=O)O)cccc1-c1cccc(C(=O)NCCN(CCNC(=O)c2cccc(-c3cccc(C(=O)O)c3OC)c2OC)CCNC(=O)c2cccc(-c3cccc(C(=O)O)c3OC)c2OC)c1OC
MEAS_VALUE: > 100 µM
--
COMPOUND: Cc1c(Cl)c(=O)oc2cc(OCC(=O)c3ccccc3)ccc12
MEAS_VALUE: > 100 µM

Query: Provide value of TGI for this record tested with NCI-H23 lung: Nc1nc(F)nc2c1ncn2C1OC(COP(=O)(O)O)C(O)C1O (centres undefined)
Reply: 243 µM

Query: What is its TGI for NCI-H23 lung? Entry: OC1C=C2C3CN(Cc4cc5c(cc43)OCO5)[C@H]2C[C@@H]1O (some centres undefined)
Reply: 67.4 µM

Query: Param readout= TGI; system= NCI-H23 lung; entry= `O=c1[nH]cnc2c1nnn2[C@@H]1O[C@H](CO)[C@@H](O)[C@H]1O` ; returns value.
Reply: > 100 µM

---

Test system: CCRF-CEM leukemia
Experiment: NCI tumour cell line growth inhibition, 48 h; in the data active = GI50 below about 0.43 µM; inactive = the rest
Returns: one label drawn from TRUE (active), FALSE (inactive)

Query: Test call for this compound, please: `Cc1cc(Nc2nc(N3CCOCC3)nc3ccccc23)n[nH]1`
Reply: FALSE

Query: For `Fc1ccc(Nc2ccc3cc(OCCCN4CCOCC4)ccc3n2)cc1F` , what call appears in the results of this test?
Reply: FALSE

Query: Could you check what this test reported for `CCN(CC)CCCN1C(=O)c2c(c(C)c3c(oc4cc(O)ccc43)c2C)C1=O` ?
Reply: TRUE

---

Test system: TK-10 renal
Assay: NCI tumour cell line growth inhibition, 48 h
READOUT_KIND: GI50

The following molecules have reported results that may help.
SMILES_STRUCTURE: CC1(C)OC(=O)C=C(O)O1.CC1(C)OC(=O)C=C(O)O1.CCO.Oc1ccc2c(c1)CCC2.[Ti]
TESTED_ON: TK-10 renal
GI50: > 100 µM
--
SMILES_STRUCTURE: C/C(=C\c1ccn(-c2ccc(N)cc2C(F)(F)F)n1)[C@@H]1C[C@@H]2O[C@]2(C)CCC[C@H](C)[C@H](O)[C@@H](C)C(=O)C(C)(C)[C@@H](O)CC(=O)O1
TESTED_ON: TK-10 renal
GI50: 0.612 µM
--
SMILES_STRUCTURE: COc1cc(/C=C/C(=O)CC(=O)/C=C/c2ccc(OC(=O)CCNC34CC5CC(CC(C5)C3)C4)c(OC)c2)ccc1OC(=O)CCNC12CC3CC(CC(C3)C1)C2
TESTED_ON: TK-10 renal
GI50: 7.09 µM
--
SMILES_STRUCTURE: CCOC(=O)c1ccc2[nH]c(Cc3[nH]c4ccc(C(=O)OCC)cc4c3C)c(C)c2c1
TESTED_ON: TK-10 renal
GI50: 4.28 µM
--
SMILES_STRUCTURE: C[C@]12CC[C@H]3[C@@H](CC=C4C[C@@H](O)CC[C@@]43C)[C@@H]1C/C(=C\c1cccc(OCCCn3ccnc3)c1)[C@@H]2O
TESTED_ON: TK-10 renal
GI50: 16.6 µM

Query: Which GI50 is reported for this molecule? `O=S(=O)(NCCNc1cc(-c2cn(-c3ccccc3)nc2-c2cccc(O)c2)ccn1)c1ccc(F)cc1`
Reply: 3.58 µM

Query: Please look up its GI50: `Cc1cc(S(=O)(=O)/N=C(\N)n2nc(C)c(C)c2C)c(SCc2ccccc2)cc1Cl`
Reply: > 100 µM

---

System: SF-295 CNS
Experiment: NCI tumour cell line growth inhibition, 48 h
In this section, each of the compounds is paired with its reported TGI.

COMPOUND: O=C(/C=C\c1cccc2ccccc12)c1ccc(Br)cc1
TESTED_ON: SF-295 CNS
MEAS_VALUE: 46.5 µM
//
COMPOUND: Cc1cc(Nc2nc(N3CCOCC3)nc3ccccc23)n[nH]1
TESTED_ON: SF-295 CNS
MEAS_VALUE: 74.4 µM
//
COMPOUND: C#CCOC(=O)C(N)CS (stereo unspecified)
TESTED_ON: SF-295 CNS
MEAS_VALUE: > 100 µM
//
COMPOUND: COc1ccc(-c2cc(=O)c3c(O)c(OC)c(O)cc3o2)cc1O
TESTED_ON: SF-295 CNS
MEAS_VALUE: > 100 µM
//
COMPOUND: CCN(CC)/C(=C\Cl)Nc1ccccn1
TESTED_ON: SF-295 CNS
MEAS_VALUE: > 100 µM
//
COMPOUND: CCC12CC[C@H](C#N)N3CCc4c(n(c5ccccc45)C(=O)C1)C32 (stereo partly specified)
TESTED_ON: SF-295 CNS
MEAS_VALUE: 31.2 µM
//
COMPOUND: C=C1C(C2(C)C=CC(=O)OC3(C)COC(=O)CC32)C(OC=O)C(OC(=O)C(O)C(C)CC)C2(C)C(c3ccoc3)CC(OC(C)=O)C12O (stereo unspecified)
TESTED_ON: SF-295 CNS
MEAS_VALUE: > 100 µM
//
COMPOUND: N#Cc1c(C(N)=O)ncn1Cc1ccccc1
TESTED_ON: SF-295 CNS
MEAS_VALUE: > 100 µM

Query: Entry `O=C(Nc1cccc(-c2nc3ccccc3[nH]2)c1)c1cccc(NC(=O)c2ccco2)c1` has what TGI?
Reply: 4.41 µM

Query: State the recorded TGI for this entry: BrC12C3C4C5C(C(C43)C13OCCO3)C52 (stereo unspecified)
Reply: > 100 µM

Query: Would you mind telling me what TGI value was observed for `COc1ccc(/C=c2/[nH]c(=O)/c(=C\c3ccc(OCc4ccccc4)cn3)[nH]c2=O)cc1` ?
Reply: > 100 µM
